Recorded z-score values for a group of compounds are listed next.
Target: NADPH oxidase 2 (Homo sapiens)
Assay: NOX2-dependent H2O2 signal modulators, primary screen, NOX inhibitor project, cell-based, HEK293-NOX2, PMA-stimulated, Amplex Red fluorescence (AID 1159); note: test concentration not given here
Details: 45 min, higher = more signal, called active from +8 up or from −8 down
Please state the value as a number alone, without comment.

Which value of z-score has been reported for `CCCC=C(CCC)[C@@H](NS(=O)(=O)c1ccc(C(F)(F)F)cc1)c1ccc(-c2ccccc2)cc1` in the records?
-1.57

// query z-score value for entry `COc1cc(CO)cc(I)c1O[C@H]1C=C(C(=O)NCCO)C[C@@H](N(CC2CCCCC2)C(=O)c2cc3ccccc3oc2=O)[C@@H]1O`
-0.289

What value of z-score has been recorded for this entry: `CN(C)CCCC[C@@H]1NC(=O)[C@@H]2C[C@H](C(=O)NCCCCCNC(=O)CS)[C@H](c3ccc(O)cc3)N2C1=O`
0.109

Which value of z-score has been reported for `COC(=O)Cn1c(C(=O)N2CCCC2)cc2c1C[C@H]1CN(C(=O)c3ccccc3)[C@@](Cc3ccc(OC)cc3)(C(=O)OC)[C@@H]21` in the records?
0.857

Need z-score, item `CO[C@H]1COC(=O)CC=C[C@@H](C)COC(=O)[C@@H](C)NC(=O)CC=C[C@@H]1C`
-0.206

Using the record for `O=[N+]([O-])c1ccc(C[n+]2ccc3ccc(O)cc3c2)o1` , report its z-score.
-0.94

Quick one: z-score of `COC(=O)[C@@]1(Cc2ccccc2CN=[N+]=[N-])N=C(c2ccc(OCCCO)cc2)O[C@H]1c1ccccc1N=[N+]=[N-]` ?
-1.2

Name the recorded z-score for `O=C1c2ccccc2[C@](Cc2ccccc2I)(C(=O)O)[C@H](c2ccc(CO)cc2)N1C1CCCCC1` .
1.06

====

System: Human papillomavirus type 1a E7 protein (residues 1-88)
Experiment: HPV1a E7 small-molecule binders, primary screen, biochemical, small-molecule microarray, residues 1-88, 635 nm (AID 1129)
Conditions: small-molecule microarray binding, fluorescence 635 nm; higher = more signal
observedProperty: composite z-score
I'd appreciate a reply containing only the number, no unit.

Please look up its composite z-score: `CC(C)(C)OC(=O)CC[C@]1(C(=O)NCCN2CCOCC2)N=C(c2ccc(OCCCO)cc2)O[C@H]1c1ccccc1CN=[N+]=[N-]`
1.17

====

Assay: S. cerevisiae RM11-1a growth modifiers, primary screen, strain RM11-1a, OD600, basal, 24 h (AID 1177);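 note: cultures grown under basal conditions with no added stressor; test concentration not given here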
Conditions: OD600, 24 h, higher = more signal, called active from +8 up or from −8 down
The molecules listed here are annotated with their z-score.
Lab note: record the figure alone, no unit after it.

# example entries with known answers
In [3]: df
Out[3]:
                                   molecule  measuredvalue
0  CCC(=O)[C@]12O[C@@]3([C@@H]4C(=O)OCC[C@@H]41)N(CC)C(C)=C(C(=O)OC)[C@@H](c1ccccc1)N3C2=O         -0.805
1  CCOC(=O)C1=CCC(c2cccc3ccccc23)N(S(=O)(=O)c2ccc(C)cc2)C1 (configuration not stated)         -0.225
2  O=C1C2C=CC(C(O)C#Cc3ccccc3)N(Nc3ccccc3)C2C(=O)N1c1ccccc1 (configuration not stated)          0.143
3  O=C(CS)NCCCCCNC(=O)[C@H]1C[C@H]2C(=O)N3CCC[C@H]3C(=O)N2[C@H]1c1ccc(O)cc1         -0.881
4  CC1=C([C@H](O)CCc2ccccc2)[C@H](CO)[C@@H]2C(=O)N(Cc3ccccc3)C(=O)[C@@H]2C1         0.0743
5  NC(=O)[C@H]1[C@@H]2C(=O)O[C@@H](c3ccccc3)[C@@H](c3ccccc3)N2[C@@H](c2ccc(O)cc2)[C@]12C(=O)Nc1ccc(C#CCCO)cc12          -1.03

Below: the item to evaluate.
Would you kindly share the measured z-score for CN1C(=O)C2C=CC(C(O)c3ccc(N(C)C)cc3)N(Nc3ccc([N+](=O)[O-])cc3[N+](=O)[O-])C2C1=O (configuration not stated) ?
-0.29
